Tested on: QT interval
Assay: class III antiarrhythmic action in guinea-pigs after intravenous administration (increase in QT interval, ECG)
Assay type: in vivo, guinea-pigs (Pirbright white)
Settings: guinea-pigs, i.v.; potency relative to D-sotalol = 1
Counter-ions that a name gives are not always drawn.
The label is satisfied for Rel. action ED20 (D-sotalol)/ED20 (example) below 5 and not satisfied for Rel. action ED20 (D-sotalol)/ED20 (example) equal to or exceeding 5.

# example entries with known answers
>  <COMPOUND>
COc1ccc(C=CC(=O)c2cc(C)c(OCCN3CCCC3)c(C)c2)c(C)c1

>  <ASSIGNED_CATEGORY>
satisfied

$$$$
>  <COMPOUND>
COc1ccccc1/C=C/C(=O)c1cc(C)c(OCCN2CCCC2)c(C)c1.O=C(O)/C=C/C(=O)O

>  <ASSIGNED_CATEGORY>
not satisfied

$$$$
>  <COMPOUND>
CCc1ccccc1C=CC(=O)c1cc(C)c(OCCN2CCOCC2)c(C)c1 [Example 18, hydrochloride]

>  <ASSIGNED_CATEGORY>
satisfied

$$$$
>  <COMPOUND>
COc1ccccc1/C=C/C(=O)c1cc(C)c(OCCN2CCCCC2)c(C)c1.Cl

>  <ASSIGNED_CATEGORY>
satisfied

$$$$
>  <COMPOUND>
Cc1ccccc1CCC(=O)c1cc(C)c(OCCN2CCCC2)c(C)c1 [Example 25, fumarate]

>  <ASSIGNED_CATEGORY>
satisfied

$$$$

Proceed to the following item.
Field: below-cutoff. Rule: recorded Rel. action ED20 (D-sotalol)/ED20 (example) strictly less than 5. Subject: Cc1ccccc1/C=C/C(=O)c1cc(C)c(OCCN2CCCCC2)c(C)c1.O=C(O)/C=C/C(=O)O
satisfied
